test system: A. baumannii ATCC19606; conditions: MH broth pH 7.4, 16–20 h, 37 °C
Catalogue of MIC A. baumannii ATCC19606 values
PROPERTY: MIC A. baumannii ATCC19606

SMILES DATA | TESTED TARGET | EXPERIMENTAL VALUE
CC(C)C[C@H](NC(=O)[C@H](CC(C)C)NC(=O)[C@H](CC(C)C)NC(=O)[C@@H](CCCCN)NC(=O)[C@H](CC(C)C)NC(=O)[C@H](CC(C)C)NC(=O)[C@@H](CCCCN)NC(=O)[C@H](CC(C)C)NC(=O)[C@H](CC(C)C)NC(=O)[C@@H](CCCCN)NC(=O)[C@H](N)CCCCN)C(N)=O | A. baumannii ATCC19606 | 2 to 4 µg/mL
CC(C)C[C@H](NC(=O)[C@H](CC(C)C)NC(=O)[C@H](CC(C)C)NC(=O)[C@H](CCCCN)NC(=O)[C@@H](CC(C)C)NC(=O)[C@@H](CC(C)C)NC(=O)[C@H](CCCCN)NC(=O)[C@@H](CC(C)C)NC(=O)[C@@H](CC(C)C)NC(=O)[C@H](CCCCN)NC(=O)[C@@H](N)CCCCN)C(N)=O | A. baumannii ATCC19606 | 4 to 8 µg/mL
CC(C)C[C@H](NC(=O)[C@H](CC(C)C)NC(=O)[C@@H](CC(C)C)NC(=O)[C@@H](CCCCN)NC(=O)[C@H](CC(C)C)NC(=O)[C@H](CC(C)C)NC(=O)[C@H](CCCCN)NC(=O)[C@@H](CC(C)C)NC(=O)[C@@H](CC(C)C)NC(=O)[C@H](CCCCN)NC(=O)[C@@H](N)CCCCN)C(N)=O | A. baumannii ATCC19606 | 32 to 64 µg/mL
